test: Half life in cynomolgus monkey liver microsomes; assay type: ADME, Macaca fascicularis
ASSAY_READOUT: log10(half-life) (log10 of the value in min)

>  <COMPOUND>
COc1ccc2c(c1)[C@@H]1C[C@]1(C(=O)N1C3CCC1CN(C)C3)Cn1c-2c(C2CCCCC2)c2ccc(C(=O)NS(=O)(=O)CC(C)C)cc21

>  <ASSAY_READOUT>
log10(half-life)

>  <REPORTED>
1.39

$$$$
>  <COMPOUND>
COc1ccc2c(c1)C1CC1(C(=O)N1C3CCC1CN(C)C3)Cn1c-2c(C2CCCCC2)c2ccc(C(=O)NS(=O)(=O)CC(C)(C)C)cc21 (racemic)

>  <ASSAY_READOUT>
log10(half-life)

>  <REPORTED>
0.92

$$$$
>  <COMPOUND>
COc1ccc2c(c1)C1CC1(C(=O)N1C3CCC1CN(C)C3)Cn1c-2c(C2CCCCC2)c2ccc(C(=O)NS(C)(=O)=O)cc21 (racemic)

>  <ASSAY_READOUT>
log10(half-life)

>  <REPORTED>
1.90

$$$$
>  <COMPOUND>
COc1ccc2c(c1)C1CC1(C(=O)N1C3CCC1CN(C)C3)Cn1c-2c(C2CCCCC2)c2ccc(C(=O)NS(=O)(=O)N3CCC3)cc21 (racemic)

>  <ASSAY_READOUT>
log10(half-life)

>  <REPORTED>
1.74

$$$$
>  <COMPOUND>
COc1ccc2c(c1)C1CC1(C(=O)N1C3CCC1CN(C)C3)Cn1c-2c(C2CCCCC2)c2ccc(C(=O)NS(=O)(=O)C3CC3)cc21 (racemic)

>  <ASSAY_READOUT>
log10(half-life)

>  <REPORTED>
2.11

$$$$
>  <COMPOUND>
CCCCS(=O)(=O)NC(=O)c1ccc2c(C3CCCCC3)c3n(c2c1)CC1(C(=O)N2C4CCC2CN(C)C4)CC1c1cc(OC)ccc1-3 (racemic)

>  <ASSAY_READOUT>
log10(half-life)

>  <REPORTED>
1.28

$$$$
>  <COMPOUND>
COc1ccc2c(c1)[C@@H]1C[C@]1(C(=O)N1C3CCC1CN(C)C3)Cn1c-2c(C2CCCCC2)c2ccc(C(=O)NS(=O)(=O)C3CCC3)cc21

>  <ASSAY_READOUT>
log10(half-life)

>  <REPORTED>
1.82

$$$$
>  <COMPOUND>
COc1ccc2c(c1)C1CC1(C(=O)N1C3CCC1CN(C)C3)Cn1c-2c(C2CCCCC2)c2ccc(C(=O)NS(=O)(=O)C3CCC3)cc21 (racemic)

>  <ASSAY_READOUT>
log10(half-life)

>  <REPORTED>
1.67

$$$$
>  <COMPOUND>
CCCS(=O)(=O)NC(=O)c1ccc2c(C3CCCCC3)c3n(c2c1)CC1(C(=O)N2C4CCC2CN(C)C4)CC1c1cc(OC)ccc1-3 (racemic)

>  <ASSAY_READOUT>
log10(half-life)

>  <REPORTED>
1.57

$$$$
>  <COMPOUND>
COc1ccc2c(c1)C1CC1(C(=O)N1C3CCC1CN(C)C3)Cn1c-2c(C2CCCCC2)c2ccc(C(=O)NS(=O)(=O)C(C)(C)C)cc21 (racemic)

>  <ASSAY_READOUT>
log10(half-life)

>  <REPORTED>
1.64

$$$$
>  <COMPOUND>
COc1ccc2c(c1)C1CC1(C(=O)N1C3CCC1CN(C)C3)Cn1c-2c(C2CCCCC2)c2ccc(C(=O)NS(=O)(=O)CC(C)C)cc21 (racemic)

>  <ASSAY_READOUT>
log10(half-life)

>  <REPORTED>
1.39

$$$$
>  <COMPOUND>
CCS(=O)(=O)NC(=O)c1ccc2c(C3CCCCC3)c3n(c2c1)CC1(C(=O)N2C4CCC2CN(C)C4)CC1c1cc(OC)ccc1-3 (racemic)

>  <ASSAY_READOUT>
log10(half-life)

>  <REPORTED>
1.86

$$$$
>  <COMPOUND>
COc1ccc2c(c1)C1CC1(C(=O)N1C3CCC1CN(C)C3)Cn1c-2c(C2CCCCC2)c2ccc(C(=O)NS(=O)(=O)CC3CC3)cc21 (racemic)

>  <ASSAY_READOUT>
log10(half-life)

>  <REPORTED>
1.59

$$$$

Entry source: ChEMBL document CHEMBL3758092
